read-out: Monokine induced gamma interferon (MIG), CXCL9 (gene 4283); test: BSK_BE3C_MIG: BioMAP Diversity Plus: BE3C Assay for Monokine induced gamma interferon (MIG) Biomarker Activity (AID 2283035); details: primary human bronchial epithelial cells; actives raise or lower the signal;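 for Outcome: MIG protein measured by ELISA in BE3C cultures after 24 h of dosing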
Activity calls are given as the source filed them. Rule for the calls: active = hit-call score of the fitted dose curve at least 0.9, where 1 is the maximum; inactive = score below 0.9.
Outcome codes: yes for active, no for inactive

compound=O=S(=O)(OCC(F)(F)F)C(F)(F)C(F)(F)C(F)(F)C(F)(F)F class=no
compound=CCOC(=O)CC(=O)C(F)(F)C(F)(F)F class=no
compound=FC(F)(F)C(F)(F)C(F)(F)C(F)(F)C(F)(F)C(F)(F)C(F)(F)CCI class=no
compound=OCC(F)(F)C(F)(F)C(F)(F)C(F)(F)C(F)(F)C(F)(F)CO class=no
compound=NCC(F)(F)C(F)(F)C(F)(F)C(F)(F)C(F)(F)C(F)(F)F class=no
compound=C=C(C)C(=O)OCC(F)(F)C(F)(F)C(F)(F)C(F)F class=no
compound="COC(F)(C(F)F)C(F)(F)F (centres undefined)" class=no
compound=C=CC(=O)OCC(F)(F)C(F)(F)C(F)(F)C(F)(F)C(F)(F)C(F)(F)C(F)(F)C(F)F class=no
compound=O=C(O)C(F)(F)C(F)(F)C(F)(F)OC(F)(C(F)(F)F)C(F)(F)F class=no
compound=O=C=NCc1cccc(CN=C=O)c1 class=no
compound=NS(=O)(=O)C(F)(F)C(F)(F)C(F)(F)C(F)(F)C(F)(F)C(F)(F)F class=no
compound=CCN(CC)c1ccc(C=O)cc1 class=no
compound=CCN(CC)c1ccc(N=Nc2ccccc2)cc1 class=no
compound=O=C(Cl)C(F)(F)C(F)(F)C(F)(F)C(F)(F)C(F)(F)C(F)(F)F class=no
compound=O=C(c1ccccc1)c1ccc(O)cc1O class=no
compound="OCC(O)CC(F)(F)C(F)(F)C(F)(F)C(F)(F)F (centres undefined)" class=no
compound=O=C1c2c(O)ccc(Nc3ccc(CCO)cc3)c2C(=O)c2c([N+](=O)[O-])ccc(O)c21 class=yes
compound=FC(F)(F)C(F)(F)C(F)(F)C(F)(F)C(F)(F)C(F)(F)CC[Si](Cl)(Cl)Cl class=no
compound=CCOC(C=C(C)CCC=C(C)C)OCC class=no
compound=OC(O)C(F)(F)C(F)(F)F class=no
compound=OCCCCC(F)(F)C(F)(F)C(F)(F)C(F)(F)F class=no
compound=NC(=O)C(F)(F)C(F)(F)C(F)(F)F class=no
compound=Cc1ccc(S(=O)(=O)C(I)I)cc1 class=yes
compound=Cc1cc(O)c(C(C)(C)C)cc1C(C)(C)C class=yes
